- Tested on: Botulinum neurotoxin type F light chain protease (Clostridium botulinum)
- protocol.description: BoNT/F light chain protease inhibitors, primary screen, biochemical, flow cytometry, MLPCN library (AID 588497); also: plate controls were buffer without enzyme for full effect and enzyme alone for no effect
- test.settings: Multiplex microsphere protease cleavage assay, at 10 µM
The campaign covered roughly 360,000 compounds. About 780 (0.22%) were called active. Roughly 4% stayed inconclusive and do not appear here. Rule as the data show it: active = inhibition above about 35% (passing the limit was not always enough); inconclusive = no clear call, values can overlap the other calls. Many of the other results were omitted from the sample, so actives are more common in it than they were.
Possible outcomes: t = active, f = inactive

>>> class_name("COc1cc(/C=C/C(=O)N2c3ccccc3Sc3ccc(C(F)(F)F)cc32)cc(OC)c1OC")
"f"
>>> class_name("COc1ccc(CCN(Cc2cc3cccc(C)c3[nH]c2=O)C(=O)N2CCCC2)cc1OC")
"f"
>>> class_name("O=C1/C(=C/c2ccc(F)cc2)SC(=S)N1NS(=O)(=O)c1ccccc1")
"f"
>>> class_name("OC[C@@H]1CN(Cc2ccc(-c3ccccc3)cc2)C[C@H](n2cnc3c(NC4CCCC4)ncnc32)O1")
"f"
>>> class_name("COc1cc(/C=C2\\SC(=S)N(Nc3ncc(C(F)(F)F)cc3Cl)C2=O)cc(OC)c1OC")
"t"

----------
- Tested on: Botulinum neurotoxin type F light chain protease (Clostridium botulinum)
- protocol.description: BoNT/F light chain protease inhibitors, primary screen, biochemical, flow cytometry, MLPCN library (AID 588497)
- test.settings: Multiplex microsphere protease cleavage assay, at 10 µM
Out of some 360,000 compounds screened, about 780 (0.22%) were called active. Another 4% or so got no clear call; they are omitted. No stated cut-off is given here; in the data, active means inhibition above about 35% (passing the limit was not always enough); inconclusive means no clear call, values can overlap the other calls. The full list was thinned out, with actives kept by preference.
Classes used: active, inactive

>>> class_name("O=C(Nc1nnc(CCc2ccccc2)s1)C1CCCO1 (stereo unspecified)")
"active"
>>> class_name("CCCCCc1c(Cc2ccccc2)ncn1CCc1ccccc1OC")
"inactive"
>>> class_name("O=C(Nc1nnc([C@H]2C[C@H](O)[C@@H](CO)O2)s1)c1cccc(Cl)c1")
"inactive"
>>> class_name("CN(C(=O)CN1CCN(c2cc(-c3ccc(OCc4ccccc4)cc3)ncn2)CC1)c1ccccc1")
"inactive"
>>> class_name("CSCCC(c1nnnn1Cc1ccccc1)N1CCN(C/C=C/c2ccccc2)CC1 (stereo unspecified)")
"inactive"
>>> class_name("CC(C)Nc1nc(NCCOc2ccccc2Cl)c2sccc2n1")
"inactive"

----------
- Test system: Botulinum neurotoxin type F light chain protease (Clostridium botulinum)
- protocol.description: BoNT/F light chain protease inhibitors, primary screen, biochemical, flow cytometry, MLPCN library (AID 588497); also: plate controls were buffer without enzyme for full effect and enzyme alone for no effect
- test.settings: Multiplex microsphere protease cleavage assay, at 10 µM
In all, about 360,000 compounds went through this assay and about 780 (0.22%) were called active. About 4% were inconclusive and are not listed. No stated cut-off is given here; in the data, active means inhibition above about 35% (passing the limit was not always enough); inconclusive means no clear call, values can overlap the other calls. The sample as a whole holds a higher share of actives than the screen did.
Outcome codes: TRUE for active, FALSE for inactive

>>> class_name("COc1ccc(-c2ccc(C(=O)NCCN3CCOCC3)c3occc23)c(C)c1")
"FALSE"
>>> class_name("Clc1cccc(Cc2c(-c3cccc(Cl)c3)nc3ccc(Cl)cn23)c1")
"FALSE"
>>> class_name("CC(NCC(=O)Nc1cc(Cl)cc(Cl)c1)c1ccccc1 (stereo unspecified)")
"FALSE"
>>> class_name("NNC(=O)CNC(c1ccccc1)c1cc(Cl)ccc1NC(=O)c1ccccc1 (stereo unspecified)")
"TRUE"
>>> class_name("O=S(=O)(NC1CCCCC1N1CCC(O)CC1)c1ccc(Cl)cc1 (stereo unspecified)")
"TRUE"
>>> class_name("O=C(COC(=O)c1ccccc1)Nc1ccc(Cl)cc1C(=O)c1ccccc1")
"FALSE"

----------
- Test system: Botulinum neurotoxin type F light chain protease (Clostridium botulinum)
- protocol.description: BoNT/F light chain protease inhibitors, primary screen, biochemical, flow cytometry, MLPCN library (AID 588497); also: plate controls were buffer without enzyme for full effect and enzyme alone for no effect
- test.settings: Multiplex microsphere protease cleavage assay, at 10 µM
Among all 360,000 compounds or so, about 780 (0.22%) were called active. Roughly 4% stayed inconclusive and do not appear here. No stated cut-off is given here; in the data, active means inhibition above about 35% (passing the limit was not always enough); inconclusive means no clear call, values can overlap the other calls. The entries come from a sample that favours actives as a whole.
Outcome codes: active, inactive

>>> class_name("CCOC(=O)c1ccc(-c2ccc3ncnc(N(C)Cc4sccc4C)c3c2)o1")
"inactive"
>>> class_name("C/C(=N\\NC(=O)c1ccccc1F)c1ccccn1")
"inactive"
>>> class_name("CC1(C(=O)NCc2cccc3ccccc23)CCN1Cc1ccc(-c2ccccc2)o1 (centres undefined)")
"inactive"
>>> class_name("O=C(NC(c1ccc(Cl)cc1)c1cnccn1)C1CCN(Cc2ccc(Cl)cc2)CC1 (centres undefined)")
"inactive"
>>> class_name("Nc1ccccc1Sc1cc(Cl)nnc1Cl")
"active"
>>> class_name("Cc1ccc(C(NC(=O)C2CCN(CCOc3ccc(Cl)cc3Cl)CC2)c2ccccn2)cc1 (centres undefined)")
"inactive"
>>> class_name("CC(C)Cc1ccc(-c2cc3nc(NCc4cccc(Cl)c4)ccn3n2)cc1")
"inactive"
>>> class_name("CC1(C)CC(=O)C=C(N2CCOCC2)C1")
"inactive"
>>> class_name("Cc1cc(Br)cn2c(Cc3cccc(F)c3)c(-c3cccc(Br)c3)nc12")
"inactive"
>>> class_name("Cc1ccc(NS(=O)(=O)c2cc3c(cc2Br)NC(=O)CO3)cc1C")
"inactive"
>>> class_name("CC=CCn1c(SCCCc2ccccc2)nc2c1c(=O)[nH]c(=O)n2C")
"inactive"
>>> class_name("Cc1cccc(C)c1NC(=S)N1CCCCCC1")
"inactive"
>>> class_name("COc1ccccc1N1CCN(CC(=O)NC(=O)NCc2ccco2)CC1")
"inactive"
>>> class_name("Cc1nn(C)c(C)c1Sc1ccccc1N")
"inactive"
>>> class_name("CC(C)Oc1cc(F)ccc1-c1cc(C(=O)Nc2cccc(Cl)c2)[nH]n1")
"inactive"
>>> class_name("Cc1cc(=O)n(C)c(=O)n1CCCNc1ccccc1")
"inactive"
>>> class_name("CC1(C)CC(=O)C=C(N2CCCC2)C1")
"active"
>>> class_name("O=C(CN1CCN(c2ccccc2O)CC1)NC(=O)NCc1ccccc1")
"active"
>>> class_name("CCc1nc2ccc(C(=O)Nc3cccc(OC)c3)cn2c1N(CCC(C)C)CCN(C)C")
"inactive"
>>> class_name("CC(C)Oc1ccc(C(=O)Nc2cc(=O)n(C)c(=O)n2C)cc1")
"inactive"
>>> class_name("COc1ccc(-c2coc3c(C(=O)NC(C)C)cccc23)c(C)c1")
"inactive"
>>> class_name("CC(O)c1nc2c(c(=O)n(C)c(=O)n2C)n1C (centres undefined)")
"inactive"
>>> class_name("Cn1c(Nc2ccccc2)cc(=O)n(C)c1=O")
"active"
>>> class_name("CCC/C(C)=N\\Nc1nc2c(c(=O)n(C)c(=O)n2C)n1C")
"active"

----------
- Test system: Botulinum neurotoxin type F light chain protease (Clostridium botulinum)
- protocol.description: BoNT/F light chain protease inhibitors, primary screen, biochemical, flow cytometry, MLPCN library (AID 588497); also: plate controls were buffer without enzyme for full effect and enzyme alone for no effect
- test.settings: Multiplex microsphere protease cleavage assay, at 10 µM, stronger effect = higher value
Among all 360,000 compounds or so, about 780 (0.22%) were called active. Not shown: some 4% with an inconclusive outcome. The sample as a whole holds a higher share of actives than the screen did.
recorded.metric: inhibition (%)

>>> recorded_value("CN1CCN(CC#CCC2(O)c3ccccc3-c3ccccc32)CC1")
-6.9
>>> recorded_value("CCC(C)(C(=O)NC1CCCCC1)N(C)C(=O)c1ccc2c(c1)OCO2 (stereo unspecified)")
4
>>> recorded_value("CCOc1ccc(/C=C(/C#N)c2nnc(N3CCOCC3)n2-c2ccccc2)cc1OC")
-9.5
>>> recorded_value("OC(c1ccccc1)(c1ccccc1)C1CCN(CCCOc2ccccc2)CC1")
0.4
>>> recorded_value("CCOC(=O)C1=CCC2C(=O)N(Cc3ccccc3)C(=O)C12 (stereo unspecified)")
7.8
>>> recorded_value("CCCNC(=O)c1cc2c(c(-c3cccc(-c4ccc(C#N)cc4)c3)n1)[C@@H](CCO)N(C(=O)CC)C2")
-8.6
>>> recorded_value("CCCCc1c(-c2ccc(Cl)cc2)ncn1CCc1ccccc1OC")
0.1
>>> recorded_value("COC(=O)CN(c1nc(C)c(Cl)c(OC)n1)S(=O)(=O)c1ccc(C)cc1")
41.2
>>> recorded_value("CCCc1c(-c2ccccc2F)ncn1Cc1ccccc1OC")
-10.4
>>> recorded_value("O=C(Cc1ccccc1[N+](=O)[O-])N1CCN(Cc2ccc3c(c2)OCO3)CC1")
-12.3
>>> recorded_value("Fc1cccc(Cc2c(-c3ccc(Cl)cc3)nc3ccc(Cl)cn23)c1")
-6
>>> recorded_value("CCCCCn1nnnc1-c1nc2cc3ccccc3cc2[nH]c1=O")
4.1
>>> recorded_value("Nc1nc2c(Br)ccc(Br)c2cc1C(=O)NCCc1ccccc1")
-1
>>> recorded_value("CCc1nc2ccccc2n(CCOCCOCCn2c(=O)c(CC)nc3ccccc32)c1=O")
-0.5
>>> recorded_value("CC(=O)Nc1cc(-c2ccc(N3CCN(C)CC3)cc2)cn2c(-c3ccc(F)cc3)cnc12")
-13.3
>>> recorded_value("COc1ccc(CNC(=O)CN(c2ccc(OC)c(Cl)c2)S(=O)(=O)c2ccc(C)cc2)cc1")
-6.9
>>> recorded_value("c1ccc(Cc2c(-c3ccco3)nc3c4ccccc4ccn23)cc1")
4.5
>>> recorded_value("CCN1CCN(C(C(=O)NC2CCCC2)c2cc3c(cc2[N+](=O)[O-])OCO3)CC1 (stereo unspecified)")
35.9
>>> recorded_value("CCN(CC)C(=O)CN(c1cccc(OC)c1)S(=O)(=O)c1ccc(C)cc1")
-9.7
>>> recorded_value("CCc1ccc(OC2(C)CCN(CCOc3ccc(C)cc3)C2)cc1 (stereo unspecified)")
-9.6
>>> recorded_value("O=C1C(Sc2cccc(F)c2)=C[C@@]2(O)CC[C@@H](O)[C@]1(Sc1cccc(F)c1)[C@H]2O")
-5.7
